Biological target: interaction between PD-1 and PD-L1 (Homo sapiens (Human), UniProt Q9NZQ7)
Sequence (Q9NZQ7 19-238): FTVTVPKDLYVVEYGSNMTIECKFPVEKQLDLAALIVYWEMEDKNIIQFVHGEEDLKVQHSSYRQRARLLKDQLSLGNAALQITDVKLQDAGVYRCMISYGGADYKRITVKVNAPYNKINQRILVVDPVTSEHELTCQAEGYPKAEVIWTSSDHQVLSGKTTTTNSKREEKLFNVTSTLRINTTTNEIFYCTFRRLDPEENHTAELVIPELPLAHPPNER
Test: PD1-PDL1 HTRF binding activity test (Cisbio PD-1/PD-L1 binding assay kit)
Details: read-out: PD1-PDL1 HTRF Binding Activity IC50
metric name: IC50 (nM)

(a) CCNC(=O)[C@@H](CO)NCc1cnc(C(=O)Nc2cccc(-c3cccc(NC(=O)c4cc(OC)c(CN[C@H](CO)C(=O)NCC)cn4)c3C)c2C)cc1OC
(b) COc1cc(C(=O)Nc2cccc(-c3cccc(NC(=O)c4cc(OC)c(CN[C@H](CCO)C(=O)O)cn4)c3C)c2C)ncc1CN[C@H](CCO)C(=O)O
(c) COc1cc(C(=O)Nc2cccc(-c3cccc(NC(=O)c4cc(OC)c(CNC5COC5)cn4)c3C)c2C)ncc1CNC1COC1
Task item: Put the listed items above in order, lowest IC50 first. Please reply with the labels ordered as requested. Many thanks.
Reply: c, b, a
(c: 0.21 nM, b: 0.33 nM, a: 1.08 nM)

====

Biological target: interaction between PD-1 and PD-L1 expressed on cell surfaces (Homo sapiens (Human))
Assay: Jurkat reporter gene cellular assay (Jurkat/NF-κB-luc/PD1 cells cocultured with Raji-PD-L1 cells, OKT-3 stimulation)
Format: cell-based
Settings: NF-κB-luc reporter activation fold, 6 hrs; read-out: Cell Activity EC50
Protocol: B. Jurkat Reporter Gene Cellular Assay The effect of compounds of the examples of the present invention and positive compounds on the interaction between PD-1 and PD-L1 expressed on cell surfaces, and the related influence on T cell functions, were determined by a Jurkat reporter gene cellular assay. […] 4. the reading of each well treated with the compound was compared with the reading of each well treated with DMSO to obtain the activation fold of the compound; and […]
metric name: EC50 (nM)

>>> val("COc1cc(C(=O)Nc2cccc(-c3cccc(NC(=O)c4cc(OC)c(CN[C@H](CO)CC(=O)O)cn4)c3C)c2C)ncc1CN[C@H](CO)CC(=O)O")
812

(1) COc1cc(C(=O)Nc2cccc(-c3cccc(NC(=O)c4cc(OC)c(CN[C@@H](CO)CC(=O)O)cn4)c3C)c2C)ncc1CN[C@@H](CO)CC(=O)O
(2) COc1cc(C(=O)Nc2cccc(-c3cccc(NC(=O)c4cc(OC)c(CNCCNC(C)=O)cn4)c3C)c2C)ncc1CNCCNC(C)=O
Task item: Name the one with the greater EC50 value, either 1 or 2 as given. In your reply, give the label of the chosen option.
Reply: 1

====

Target: interaction between PD-1 and PD-L1 expressed on cell surfaces (Homo sapiens (Human), UniProt Q9NZQ7)
Sequence (Q9NZQ7 19-290): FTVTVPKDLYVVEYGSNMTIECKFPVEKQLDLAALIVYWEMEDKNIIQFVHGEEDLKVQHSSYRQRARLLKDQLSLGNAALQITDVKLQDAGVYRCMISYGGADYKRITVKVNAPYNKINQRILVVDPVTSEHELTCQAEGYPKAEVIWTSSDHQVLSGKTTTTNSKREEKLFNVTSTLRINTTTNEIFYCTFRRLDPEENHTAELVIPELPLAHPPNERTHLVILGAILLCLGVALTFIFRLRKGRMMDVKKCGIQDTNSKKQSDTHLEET
Assay: Jurkat reporter gene cellular assay (Jurkat/NF-κB-luc/PD1 cells cocultured with Raji-PD-L1 cells, OKT-3 stimulation)
Type: cell-based
Conditions: NF-κB-luc reporter activation fold, 6 hrs; read-out: Cell Activity EC50
pEC50: −log10 of the molar value.
metric name: pEC50

>>> val("Cc1cc(C(=O)Nc2cccc(-c3cccc(NC(=O)c4cc(C)c(CN5CC[C@@H](O)C5)cn4)c3C)c2C)ncc1CN1CC[C@@H](O)C1")
6.96
>>> val("Cc1c(NC(=O)c2cc(C3CC3)c(CNC3CCC[C@@H]3O)cn2)cccc1-c1cccc(NC(=O)c2cc(C3CC3)c(CN[C@H]3CCC[C@@H]3O)cn2)c1C (stereo partly drawn)")
6.66
>>> val("Cc1c(NC(=O)c2cc(C3CC3)c(CNC[C@@H]3CCC(=O)N3)cn2)cccc1-c1cccc(NC(=O)c2cc(C3CC3)c(CNC[C@@H]3CCC(=O)N3)cn2)c1C")
6.97
>>> val("Cc1c(NC(=O)c2cc(C3CC3)c(CN[C@@H](CCO)C(=O)O)cn2)cccc1-c1cccc(NC(=O)c2cc(C3CC3)c(CN[C@@H](CCO)C(=O)O)cn2)c1C")
7.05
>>> val("CCOC(=O)[C@H](CO)NCc1cnc(C(=O)Nc2cccc(-c3cccc(NC(=O)c4cc(C5CC5)c(CN[C@@H](CO)C(=O)OCC)cn4)c3C)c2C)cc1C1CC1")
6.12
>>> val("Cc1c(NC(=O)c2cc(C3CC3)c(CNC(CO)CO)cn2)cccc1-c1cccc(NC(=O)c2cc(C3CC3)c(CNC(CO)CO)cn2)c1C")
7.26

(1) COc1cc(C(=O)Nc2cccc(-c3cccc(NC(=O)c4cc(OC)c(CN5CC[C@H](C(=O)O)C5)cn4)c3C)c2C)ncc1CN1CC[C@H](C(=O)O)C1
(2) COC(=O)C1CCN(Cc2cnc(C(=O)Nc3cccc(-c4cccc(NC(=O)c5cc(OC)c(CN6CCC(C(=O)OC)CC6)cn5)c4C)c3C)cc2OC)CC1
Task item: From the items above, decide which of 1 and 2 has the lower pEC50 reading. In your reply, give the label of the chosen option.
Reply: 2
